Values from paper PMC5540273

%Inh values by entry
- System: AKT1
- protocol.conditions: concentration: 1 μM, replicates: in singlicate; n = 1;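 further: KINOMEscan kinase panel screen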
quantity.kind: %Inh (%)

molecule: O=C1NC(=O)C(c2ccc(Cl)cc2)=C1Nc1ccc(O)cc1
quantity.kind: %Inh
observed: 1
//
molecule: Cc1ccc(NC(=O)Nc2ccc(Cl)cc2)cc1-c1ccc(C(=O)Nc2ccncc2)cc1
quantity.kind: %Inh
observed: 0
//
molecule: Nc1cccc(-c2ccc3c(N)n[nH]c3c2)n1
quantity.kind: %Inh
observed: 0
//
molecule: COc1ccc(CSc2nnc(-c3ccc4nccn4c3)o2)cc1C(F)(F)F
quantity.kind: %Inh
observed: 13
//
molecule: Cc1ccc(NC(=O)Nc2ccc(Cl)c(C(F)(F)F)c2)cc1-c1ccc(C(=O)Nc2ccncc2)cc1
quantity.kind: %Inh
observed: 0
//
molecule: CCCCc1nn2ncccc2c1-c1ccnc(NC2CC2)n1
quantity.kind: %Inh
observed: 0
//
molecule: Cc1ccc(-c2nc(Nc3ccncc3)c3ccccc3n2)s1
quantity.kind: %Inh
observed: 55
//
molecule: COc1cccc(CNC(=O)NC2CCN(c3ccnc(Nc4ccc(F)cc4)n3)C2)c1 (stereo not drawn)
quantity.kind: %Inh
observed: 0
//
molecule: CC(=O)c1c(C)c2cnc(Nc3ccc(N4CCNCC4)cn3)nc2n(C2CCCC2)c1=O
quantity.kind: %Inh
observed: 0

---

%Inh values by entry
- Test system: PLK4
- protocol.conditions: concentration: 1 μM, replicates: in singlicate; n = 1
quantity.kind: %Inh (%)

molecule: O=c1cc(N2CCOCC2)nc2n(Cc3cccc(Cl)c3Cl)c3ccccc3n12
quantity.kind: %Inh
observed: 7
//
molecule: O=C(Nc1n[nH]c2nc(-c3cccs3)c(Br)cc12)C1CC1
quantity.kind: %Inh
observed: 8
//
molecule: COc1cccc(C2=C(Nc3cc(Cl)c(O)c(Cl)c3)C(=O)NC2=O)c1
quantity.kind: %Inh
observed: 0
//
molecule: COc1cccc(NC(=O)Nc2ccc(C)c(-c3ccc(C(=O)Nc4ccncc4)cc3)c2)c1
quantity.kind: %Inh
observed: 6
//
molecule: O=C1NC(=O)C(c2ccc(Cl)cc2)=C1Nc1cccc(Cl)c1
quantity.kind: %Inh
observed: 0
//
molecule: COC(=O)C(NC(=O)NC1CCN(c2ccnc(Nc3ccc(F)cc3)n2)C1)c1ccccc1 (stereo not shown)
quantity.kind: %Inh
observed: 1
//
molecule: Cc1ccc(NC(=O)Nc2ccc(Cl)cc2)cc1-c1ccc(C(=O)Nc2ccncc2)cc1
quantity.kind: %Inh
observed: 0
//
molecule: NS(=O)(=O)c1cccc(N/C=C2\C(=O)Nc3ccc(S(=O)(=O)Cc4c(Cl)cccc4Cl)cc32)c1
quantity.kind: %Inh
observed: 18
//
molecule: Cc1cccc2c(-c3ccncn3)c(-c3ccc(F)cc3)nn12
quantity.kind: %Inh
observed: 0
//
molecule: Fc1ccc(-c2nc3n(c2-c2ccncc2)CCS3)cc1
quantity.kind: %Inh
observed: 0
//
molecule: COc1cccc(CNC(=O)NC2CCN(c3ccnc(Nc4ccc(F)cc4)n3)C2)c1 (stereo not shown)
quantity.kind: %Inh
observed: 0
//
molecule: CNCc1ccc2nc(NC(=O)c3ccc(C(C)(C)C)cc3)cn2c1
quantity.kind: %Inh
observed: 8
//
molecule: Cc1c(Cn2c3ccccc3n3c(=O)cc(N4CCOCC4)nc23)cccc1C(F)(F)F
quantity.kind: %Inh
observed: 0
//
molecule: Cc1ccc(NC(=O)Nc2ccccc2F)cc1-c1ccc(C(=O)Nc2ccncc2)cc1
quantity.kind: %Inh
observed: 0
//
molecule: CCc1ccc(-c2ccc3c(c2)-c2n[nH]cc2S(=O)(=O)N3C)cc1
quantity.kind: %Inh
observed: 0
//
molecule: Nc1cccc(-c2ccc3c(N)n[nH]c3c2)n1
quantity.kind: %Inh
observed: 8
//
molecule: CNC(=O)c1ccc(C)c(-n2c(C)cc(OCc3ccc(F)cc3F)c(Br)c2=O)c1
quantity.kind: %Inh
observed: 0
//
molecule: Cc1ccc(NC(=O)Nc2ccccc2)cc1-c1ccc(C(=O)Nc2ccncc2)cc1
quantity.kind: %Inh
observed: 1
//
molecule: Cc1nccc(-c2c(-c3ccc(F)cc3)ncn2CCCN2CCOCC2)n1.Cl
quantity.kind: %Inh
observed: 3
//
molecule: CNc1nc(-c2ccc3c(N)n[nH]c3c2)cc(N2C[C@@H](C(=O)NC3CCCCC3)OC[C@H]2C)n1
quantity.kind: %Inh
observed: 1
//
molecule: COC(=O)C(Cc1ccccc1)NC(=O)NC1CCN(c2ccnc(Nc3ccc(F)cc3)n2)C1 (stereo not shown)
quantity.kind: %Inh
observed: 12
//
molecule: CC(=O)c1c(C)c2cnc(Nc3ccc(N4CCNCC4)cn3)nc2n(C2CCCC2)c1=O
quantity.kind: %Inh
observed: 6
//
molecule: Cn1cncc1C(=O)NC1CCN(c2ccnc(Nc3ccc(F)cc3)n2)C1 (stereo not shown)
quantity.kind: %Inh
observed: 0
//
molecule: O=C1NC(=O)C(c2ccc(Cl)cc2)=C1Nc1ccc(O)cc1
quantity.kind: %Inh
observed: 0
//
molecule: CC(=O)c1c(C)c2cnc(Nc3ccn(C)n3)nc2n(C2CCCC2)c1=O
quantity.kind: %Inh
observed: 15
//
molecule: Nc1nccc(-c2c(-c3ccc(F)cc3)ncn2C2CCN(Cc3ccccc3)CC2)n1
quantity.kind: %Inh
observed: 8
//
molecule: COc1ccc(CSc2nnc(-c3ccc4c(c3)CCO4)o2)cc1
quantity.kind: %Inh
observed: 0
//
molecule: COC(=O)c1cccc(NC(=O)NC2CCN(c3ccnc(Nc4ccc(OC)cc4)n3)C2)c1 (stereo not shown)
quantity.kind: %Inh
observed: 0
//
molecule: COc1ccc(Nc2nccc(N3CCC(NC(=O)C(C)c4ccc(Cl)cc4)C3)n2)cc1 (stereo not shown)
quantity.kind: %Inh
observed: 0
//
molecule: CC(C)c1cc(-c2ccc3c(N)n[nH]c3c2)nc(N)n1
quantity.kind: %Inh
observed: 0
//
molecule: c1ccc(-c2ccnc3[nH]ccc23)cc1
quantity.kind: %Inh
observed: 5
//
molecule: COc1ccc(Nc2nccc(NCCNC(=O)Nc3cc(C)ccc3C)n2)cc1
quantity.kind: %Inh
observed: 0
//
molecule: O=C(Nc1n[nH]c2nc(-c3ccco3)c(Br)cc12)C1CCN(Cc2ccccc2)C1.O=C(O)[C@H](O)[C@@H](O)C(=O)O (stereo not shown)
quantity.kind: %Inh
observed: 22
//
molecule: CCCCc1nn2ncccc2c1-c1ccnc(NC2CC2)n1
quantity.kind: %Inh
observed: 0
//
molecule: CS(=O)(=O)Cc1ccc(Nc2nccc(-c3c(-c4cccc(NC(=O)C5CCCCC5)c4)nn4ncccc34)n2)cc1
quantity.kind: %Inh
observed: 6
//
molecule: Cc1ccc(NC(=O)Nc2ccc(Cl)c(C(F)(F)F)c2)cc1-c1ccc(C(=O)Nc2ccncc2)cc1
quantity.kind: %Inh
observed: 0
//
molecule: CS(=O)(=O)CCNCc1nc(-c2ccc3ncnc(Nc4ccc5c(cnn5Cc5ccccc5)c4)c3c2)cs1.Cl.Cl
quantity.kind: %Inh
observed: 13

---

- Test system: PRKD3
- protocol.conditions: concentration: 1 μM, replicates: in singlicate; n = 1
%Inh values by entry
quantity.kind: %Inh (%)

compound: COc1cc2ncnc(Nc3cccc(Br)c3)c2cc1OC.Cl
target: PRKD3
observed: 0
--
compound: Fc1ccc(-c2nn3cccc(F)c3c2-c2ccncc2)cc1
target: PRKD3
observed: 34
--
compound: O=C1NC(=O)C(c2ccc(Cl)cc2)=C1Nc1cccc(Cl)c1
target: PRKD3
observed: 0
--
compound: Cc1c(Cn2c(C)c(C)n3c(=O)cc(N4CCOCC4)nc23)cccc1C(F)(F)F
target: PRKD3
observed: 8
--
compound: CC(=O)c1c(C)c2cnc(Nc3ccc(N4CCNCC4)cn3)nc2n(C2CCCC2)c1=O
target: PRKD3
observed: 0
--
compound: Cc1ccc(-c2nc(Nc3ccncc3)c3ccccc3n2)s1
target: PRKD3
observed: 22
--
compound: Cc1ccccc1Cn1ccn2c(=O)cc(N3CCOCC3)nc12
target: PRKD3
observed: 0
--
compound: CS(=O)(=O)CCNCc1nc(-c2ccc3ncnc(Nc4ccc5c(cnn5Cc5ccccc5)c4)c3c2)cs1.Cl.Cl
target: PRKD3
observed: 0
--
compound: Cc1ccc(NC(=O)Nc2ccccc2F)cc1-c1ccc(C(=O)Nc2ccncc2)cc1
target: PRKD3
observed: 23
--
compound: Nc1ncnc2occ(-c3ccc4c(c3)CCN4C(=O)Cc3cc(F)ccc3F)c12
target: PRKD3
observed: 0
--
compound: Cc1ccc(NC(=O)c2ccc(Cl)cc2)cc1-c1ccc(C(=O)Nc2ccncc2)cc1
target: PRKD3
observed: 9
--
compound: COc1ccc(Nc2nccc(N3CCC(NC(=O)C(C)c4ccc(Cl)cc4)C3)n2)cc1 (stereo not drawn)
target: PRKD3
observed: 21
--
compound: CNc1nc(-c2ccc3c(N)n[nH]c3c2)cc(N2C[C@@H](C(=O)Nc3ccccc3)CC[C@H]2C)n1
target: PRKD3
observed: 0
--
compound: Fc1ccc(-c2nc3n(c2-c2ccncc2)CCS3)cc1
target: PRKD3
observed: 20
--
compound: COc1cccc(C2=C(Nc3cc(Cl)c(O)c(Cl)c3)C(=O)NC2=O)c1
target: PRKD3
observed: 100
--
compound: COc1ccc(Nc2nccc(N3CCC(NC(=O)C(C)c4ccc(Cl)cc4)CC3)n2)cc1 (stereo not drawn)
target: PRKD3
observed: 0
--
compound: CC(C)c1cc(-c2ccc3c(N)n[nH]c3c2)nc(N)n1
target: PRKD3
observed: 0
--
compound: Cc1ccc(NC(=O)Nc2ccccc2)cc1-c1ccc(C(=O)Nc2ccncc2)cc1
target: PRKD3
observed: 3
